B1: Zinc finger MYM-type protein 2, residues 463 to 506; numbered along this chain, Q9UBW7 (parent)
chain: IMNCCEQCGEYLPSKGAGNNVLVIDGQQKRFCCQSCVSEYKQVG

- Variants of: B1
- protocol.description: abundance fitness (aPCA) (normalised: wild type 0, dead -1); higher = more abundant; growth selection in yeast, the domain comes from the species named
- condition.summary: Homo sapiens
A collection of variants and their measured abundance fitness
value.type: abundance fitness

>>> val("E6H")
-0.256
>>> val("C4K")
0.125
>>> val("C32K")
-0.439
>>> val("C36H")
-0.341
>>> val("E10M")
-0.656
>>> val("Y11F")
-0.133
>>> val("E10V")
-0.86
>>> val("R30K")
0.216
>>> val("L12G")
-0.385
>>> val("Q27L")
-0.045
>>> val("K15W")
-0.124
>>> val("K41L")
-0.122
>>> val("E39C")
0.204
>>> val("V23Q")
0.181
>>> val("S14D")
0.241
>>> val("S35W")
-0.114
>>> val("D25A")
-0.117
>>> val("G26D")
0.183
>>> val("C32A")
-0.354
>>> val("D25E")
-0.11
